# Assay overview: yeast display, Sf9 membrane polyspecificity reagent, FACS + sequencing; frameworks hold sequencing errors

Construct sequence	polyreactivity (PSR sort gate)
QVQLVESGGGLVQAGGSLRISCAASGRIFVGYAMGWYRQAPGKERELVAAINRSGSSTYYADSVKGRFTISRDNAKNTVYLQMNSLKPEDTAVYYCNARSGNRYGPRYDYWGQGTQVTVSS	high polyreactivity
QVQLVESGGGLVQAGGSLRLSCAASGSISPQNVMGWYTQAPGKERELVAAITGGGSTNYADSVKGRFTISRDNAKNTVFLLMNSLKPEDTAVYYCNADYFQDRLDYWGQGTQVTVSS	low polyreactivity
QVQLVESGGGLVQAGGSLRLSCAASGSTFRPNAMGWYRPAPGKDRELVAAISWSGRSTYYADSVKGRFTISRDQAKTTVYLQMNSLTPQDTAVADCAKELYAGRTDTRTRYDYWGQGTQVTVSS	high polyreactivity
QVQLVESGGGLVQAGGSLRFSCAASGRTFQYYTMGWSRQAPGKEREFVAAIRDSGGSTYYADSVKGRFTISRDNAKNTVYLQMNSLKPEDTAVYYCAAYRPRKYDYWGQGTQVTVSS	high polyreactivity
QVQLVESGGGLVQAGGRLRLSCAASGLTFYRNAMGWYRQAPGKERELVAAITTSGARTYYADSVKGRFTISRDNAKNTVYLRMNSLKPDVTAVYYCNAPVRRDVAYGYWGQGTQVTVSS	high polyreactivity
QVQLVESGGGLVQAGGSLRLSCAASGRIFEWNTMGWYRQAPGKEREVVATISWDGGSTYYADSVKGRFTISRDNAKNTVYLQMNSLIPEDTAVYYCNKSPLNFFRFRATYDYWGQGTQVTVSS	low polyreactivity
QVQLVESGGGLVQAGGSLRLSCAASGSIFAGYAMGWYRKAPGKERELVAVISSTGSTYYADSVKGRFTISRDNAKNTVYLQMNSLKTEDTAVYYCNAYRYWSPGYDYWGQGTQVTVSS	low polyreactivity
QFQLVESGGGLVQAGGSLRLSCAAYGFTFYAYTMGWYRQAPGKERELVAAIRTGSSTYYADSVKGRFTISRDNAKNTVYLQMNSMKPQDTAVYYCAAPRWRRPYRYDYWGQGTQVTVSS	high polyreactivity
QVQLVESGGGLVQAGGSLRLSCAASGFTFRTNAMGWYRQAPGKERELVAAISRSGGSTYYADSVKGRFTISRDNAKNTVYLQMNSLKPEDTAVYYCATVKVSHRRYDYWGQGTQVTLSS	high polyreactivity
QVQLVESGGGLVQAGGSLRLTCAASGSIFLSYAMGWYRQPPGKDRELVAAISGGVNTYYADSVKGSFTISRDNAKNTVYLQMNSLKPEDTAVYYCYAVPHIYAEGTAYNYWGQGTQVTVSS	low polyreactivity
QVQLVESGGGLVQAGGSLRLSCAASGLIFGRYAMGWYRQAPGKERELVAAITCGTNTNYADSVKGRFTISRDNAKNTVYLQMNSLKPEDTAVYYCGKASGRCSLARGATYSVDYWGQGTQVTVSS	high polyreactivity
QVQLVESGGGLVQAGGSLRLSCAASGSTIRYYAMGWYRQAPGKERELVAAITKSGGSTYYADSVKGRFTISRDNAKNTVYLQMNSLKPEDTAVYYCAAVRRWYYPALSEHDYWGQGTQVTVSS	low polyreactivity
QVQLVESGGGLVQAGGSLRLSCAASGFTFNYNTMGWYRQAPGKERELVARISRSGGRTYYADSVKGRFTISRDNAKNTVYLQMNSLKPEDTAVYYCNTDYYGVRHRYDYWGQGTQVTVSS	high polyreactivity
QVQLVESGGGLVQAGGSLRISCAASGRIFVSNAMGWYRQAPGKDRELVAAISKSGARTSYADSVKGRFTISRDNAKNTVYLQMNSLKPEDTAVYYCAAPVRWSGGGEYPNYYWGQGTQVTVSS	high polyreactivity
QVQLVESGGGLVQAGGSLRLSCAASGFIFTGNAMGWYRQAPGKERELLAAISSSGTRTYYADSVKGRFTISRDNASNTVYLQMNSLKPEDTAVYYCNKLYLVWNFYSGYDYWGQGTQVTVSS	high polyreactivity
QVQLVESGGGLVQAGGSLRLSCAASGSIFGTYAMGWYRQAPGNERELVAAITGNGGRTYYADSVKGRFTISRDNAKNTVYLQMNSLKPEDTAVYYCAKATSRRGFYYWGQGTQVTVSS	high polyreactivity
QVQLVESGGGLVQAGGSLRLRCAASGFIFRHNAMGWYRQAPGKAREFVAAISISGGSTYYADSVKGRFTISRDNAKNTVYLQMNSLKPEDTAVYYCNARSMGNTYLLYDYWGQGTQVTFSS	low polyreactivity
QVQLVESGGGLVQAGGSLRLSCAASGRTFPYNVMGGYRQAPGKERELVASNDGSGGSTYYADSVKGRFTISRDNAKKTVYLQMNSLKPEDTAVYYCAAVYYQSGNYWYSYLGQSPYDYWGQGTQVTVSS	low polyreactivity
QVQLVESGGGLVQAGGSLRLSCAASGSIFVYNAMGWYRQAPGKERELVASITWSGGRTYYADSVKGRFTNSRDNAQNTVYLQMNSLKPEDTAVYYCAADSPRGYDYWGQGTQVTVSS	high polyreactivity
QVQLVESGGGLVQAGGSLRLTCAASGFIFRKYTMGWYRQAPGKERELVATLDSSGGSTYYADSVKGRFTISRDNAKNTVYLQMNSLKPEDTAVYYCNADLRELSPWYWYSGEMDYWGQGTQVTVSS	low polyreactivity
QVQLVESGGALVQAGGSLRLSCAASGSTIGDNAMGWYRQAPGKERELVASISWSGASTYYADSVKGRFTISRDNAKNTFYLPMKSLKPEETEVYYCAVYYSYFSHLYHLLFYYWGQGTQVTVSS	low polyreactivity

Attribution: the nanobody polyreactivity screen of Harvey et al. (2022)
